Tested on: P. aeruginosa MB9798 (efflux+, IMP-1 plasmid)
DETAILS: fold difference between efflux+ (MB9798) and efflux− (MB9799) strains
OBSERVATION_TYPE: Efflux ratio

Request: Reported Efflux ratio for P. aeruginosa MB9798 (efflux+, IMP-1 plasmid), given NCCOCC1CCN(c2ccc(S(=O)(=O)NC[C@H](O)CN)c(S(N)(=O)=O)c2-c2nn[nH]n2)CC1 [Example 208] ?
Result: 1.00

Request: Reported Efflux ratio for P. aeruginosa MB9798 (efflux+, IMP-1 plasmid), given NS(=O)(=O)c1c(S(=O)(=O)C2CNC2)ccc(N2CCCC(CO)C2)c1-c1nnn[nH]1 (stereo not shown) [Example 57] ?
Result: 15.99

Request: Reported Efflux ratio for P. aeruginosa MB9798 (efflux+, IMP-1 plasmid), given NCC1CCN(c2ccc(S(=O)(=O)N[C@@H]3CCNC3)c(S(N)(=O)=O)c2-c2nnn[nH]2)CC1 [Example 77] ?
Result: 2.00

Request: Reported Efflux ratio for P. aeruginosa MB9798 (efflux+, IMP-1 plasmid), given NC1CCCN(c2ccc(S(=O)(=O)C3CNC3)c(S(N)(=O)=O)c2-c2nnn[nH]2)CC1 (stereo not shown) [Example 32] ?
Result: 4.00

* * *

Below are molecules with their IC50 as measured on UniProtKB P52699.
// return numeric value only (unit: nM, not printed)

Request: Reported IC50 for UniProtKB P52699, given NS(=O)(=O)c1c(S(=O)(=O)N[C@@H]2CCNC2)ccc(N2CCN(CCCO)CC2)c1-c1nnn[nH]1 [Example 93] ?
Result: 2.52

* * *

System: P. aeruginosa MB9798 (efflux+, IMP-1 plasmid)
DETAILS: efflux + (MB9798) strain; imipenem at 2 μg/mL; in the presence of a class A, C, D serine β-lactamase inhibitor closely related to relebactam
OBSERVATION_TYPE: MB9798 MITC95 P. aeruginosa uM Efflux WT (µM)
// return numeric value only (unit: µM, not printed)

NCCCC1CCN(c2ccc(S(=O)(=O)NC[C@H](O)CN)c(S(N)(=O)=O)c2-c2nn[nH]n2)CC1    0.78

Request: Quick check: MB9798 MITC95 P. aeruginosa uM Efflux WT of NC[C@@H](O)CNS(=O)(=O)c1ccc(N2CCN(CCCO)CC2)c(-c2nnn[nH]2)c1S(N)(=O)=O ?
Result: 1.56

Request: Quick check: MB9798 MITC95 P. aeruginosa uM Efflux WT of NS(=O)(=O)c1c(S(=O)(=O)N[C@@H]2CCNC2)ccc(N2CCC(F)(CO)CC2)c1-c1nnn[nH]1 ?
Result: 3.13

Request: Quick check: MB9798 MITC95 P. aeruginosa uM Efflux WT of NC[C@@H](O)CNS(=O)(=O)c1ccc(N2CC[C@@H](N)C2)c(-c2nn[nH]n2)c1S(N)(=O)=O ?
Result: 6.25

* * *

System: P. aeruginosa MB9798 (efflux+, IMP-1 plasmid)
DETAILS: fold difference between efflux+ (MB9798) and efflux− (MB9799) strains
OBSERVATION_TYPE: Efflux ratio

// solved cases for Efflux ratio follow
COC1(CN(C)C)CN(c2ccc(S(=O)(=O)N[C@@H]3CCNC3)c(S(N)(=O)=O)c2-c2nnn[nH]2)C1    2.00
NS(=O)(=O)c1c(S(=O)(=O)C2CNC2)ccc(N2C[C@H](O)C[C@@H](O)C2)c1-c1nnn[nH]1    16.00

Request: Quick check: Efflux ratio of NC[C@@H](O)CNS(=O)(=O)c1ccc(N2CCC(N)CC2)c(-c2nn[nH]n2)c1S(N)(=O)=O ?
Result: 1.00

Request: Quick check: Efflux ratio of NC[C@@H](O)CNS(=O)(=O)c1ccc(N2CCC(CCn3cccn3)CC2)c(-c2nn[nH]n2)c1S(N)(=O)=O ?
Result: 15.99

Request: Quick check: Efflux ratio of NS(=O)(=O)c1c(S(=O)(=O)N[C@@H]2CCNC2)ccc(N2CCCC(CO)C2)c1-c1nnn[nH]1 (stereo partly shown) ?
Result: 2.00

Request: Quick check: Efflux ratio of NC(=O)C1CCN(c2ccc(S(=O)(=O)N[C@@H]3CCNC3)c(S(N)(=O)=O)c2-c2nnn[nH]2)CC1 ?
Result: 1.00

* * *

TEST_TARGET: IMP-1 (Serratia marcescens, UniProt P52699)
Sequence (P52699 whole entry, looked up, species assumed): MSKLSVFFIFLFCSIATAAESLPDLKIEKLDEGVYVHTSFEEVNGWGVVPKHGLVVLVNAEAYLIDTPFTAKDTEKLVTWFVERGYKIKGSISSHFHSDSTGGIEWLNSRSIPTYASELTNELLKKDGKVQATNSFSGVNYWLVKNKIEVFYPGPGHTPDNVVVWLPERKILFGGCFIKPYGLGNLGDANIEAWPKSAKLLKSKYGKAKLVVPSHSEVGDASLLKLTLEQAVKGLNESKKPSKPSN
Consider the cut-off 2 nM. If the recorded IC50 is strictly smaller, the label is 1 (yes); if not, the label is 0 (no).

NS(=O)(=O)c1c(S(=O)(=O)N[C@@H]2CCNC2)ccc(N2CCCC(O)C2=O)c1-c1nn[nH]n1 (stereo partly shown)    0 (no)
NC[C@H](N)CNS(=O)(=O)c1ccc(N2CCC(CO)CC2)c(-c2nnn[nH]2)c1S(N)(=O)=O    1 (yes)
NS(=O)(=O)c1c(S(=O)(=O)N[C@@H]2CCNC2)ccc(N2CCN(C(=O)CO)CC2)c1-c1nnn[nH]1    0 (no)
NCCN1CCN(c2ccc(S(=O)(=O)NC[C@H](O)CN)c(S(N)(=O)=O)c2-c2nn[nH]n2)CC1=O    0 (no)

Request: Given NC[C@@H](O)CNS(=O)(=O)c1ccc(N2CCC[C@H](CN)C2)c(-c2nnn[nH]2)c1S(N)(=O)=O , is recorded IC50 strictly lower than 2 nM?
Result: 0 (no)

Request: Given NCC1=CCN(c2ccc(S(=O)(=O)NC[C@H](O)CN)c(S(N)(=O)=O)c2-c2nn[nH]n2)C1.O=C(O)C(F)(F)F.O=C(O)C(F)(F)F , is recorded IC50 strictly lower than 2 nM?
Result: 0 (no)

Request: Given NCC=C1CCN(c2ccc(S(=O)(=O)NC[C@H](O)CN)c(S(N)(=O)=O)c2-c2nn[nH]n2)CC1 , is recorded IC50 strictly lower than 2 nM?
Result: 1 (yes)

* * *

TEST_TARGET: IMP-1 (Serratia marcescens)
RUN_DESCRIPTION: biochemical
DETAILS: CCF2-FA fluorescence assay, 2 hours at 25° C.; read-out: IMP1 IC50
The following molecules are shown together with reported log10(IC50) values.
Transform log10 | Measure IC50 | Unit nM

NS(=O)(=O)c1c(S(=O)(=O)C2CNC2)ccc(N2CCC(CO)CC2)c1-c1nnn[nH]1    -0.07
NCCNS(=O)(=O)c1ccc(N2CCC(O)(CN)CC2)c(-c2nn[nH]n2)c1S(N)(=O)=O    1.43
NC[C@@H](O)CNS(=O)(=O)c1ccc(N2CCNC(CO)C2)c(-c2nn[nH]n2)c1S(N)(=O)=O (stereo partly shown)    1.39
NC[C@@H](O)CNS(=O)(=O)c1ccc(N2CCN(CCO)C(=O)C2)c(-c2nn[nH]n2)c1S(N)(=O)=O    0.35
NCCNS(=O)(=O)c1ccc(N2CCN(CCCO)CC2)c(-c2nnn[nH]2)c1S(N)(=O)=O    0.78

Read the next record carefully.
Request: Quick check: log10(IC50) of NC[C@H]1CCCN(c2ccc(S(=O)(=O)N[C@@H]3CCNC3)c(S(N)(=O)=O)c2-c2nnn[nH]2)C1 ?
Result: 1.66

* * *

Tested on: P. aeruginosa MB9798 (efflux+, IMP-1 plasmid)
DETAILS: efflux + (MB9798) strain; imipenem at 2 μg/mL; in the presence of a class A, C, D serine β-lactamase inhibitor closely related to relebactam
Structures can show the parent of a compound that is named as a salt.
OBSERVATION_TYPE: MB9798 MITC95 P. aeruginosa uM Efflux WT (µM)
// return numeric value only (unit: µM, not printed)

// solved cases for MB9798 MITC95 P. aeruginosa uM Efflux WT follow
NCC1CCCN(c2ccc(S(=O)(=O)NC[C@H](O)CN)c(S(N)(=O)=O)c2-c2nn[nH]n2)CC1 (stereo partly shown) [Example 139, trifluoroacetate]    1.56
NC[C@@H](O)CNS(=O)(=O)c1ccc(N[C@H]2C[C@@H](N)C2)c(-c2nnn[nH]2)c1S(N)(=O)=O    6.25
NC[C@@H](O)CNS(=O)(=O)c1ccc(N2CC[C@@H](CN)C2)c(-c2nn[nH]n2)c1S(N)(=O)=O    6.25
NS(=O)(=O)c1c(S(=O)(=O)C2CNC2)ccc(N2CCC(CCO)CC2)c1-c1nnn[nH]1    6.25
NC[C@@H](O)CNS(=O)(=O)c1ccc(N2CCN(CCO)CC2)c(-c2nnn[nH]2)c1S(N)(=O)=O    1.56

Request: Quick check: MB9798 MITC95 P. aeruginosa uM Efflux WT of NCCNS(=O)(=O)C1CCN(c2ccc(S(=O)(=O)N[C@@H](CN)CO)c(S(N)(=O)=O)c2-c2nn[nH]n2)CC1 ?
Result: 1.56

Request: Quick check: MB9798 MITC95 P. aeruginosa uM Efflux WT of NS(=O)(=O)c1c(S(=O)(=O)N[C@@H]2CCNC2)ccc(N2CCC(c3c[nH]cn3)CC2)c1-c1nn[nH]n1 ?
Result: 0.78
